- method: Metabolic stability in human hepatic microsome
- Assay type: in vitro ADME
- test.context: human, microsomes, pH 7.4, CL NADPH(+)
Starred links: 1 amine or outer side, 2 acyl side, 3 side chain; linkers in the order of their positions; H or OH if unused. Positions of bridges follow the written chain, without caps; N, C: chain ends. Non-standard residues stand in square brackets, D forms with d. Residues, ends and D or L forms follow the SMILES beside them. ξ: configuration not given here. *: point of attachment. NMeF = CN[C@@H](Cc1ccccc1)C(=O)O; NMeGABA = CN(CCCC(=O)[*:2])[*:1]; NMeI = CC[C@H](C)[C@H](NC)C(=O)O; NMeL = CN[C@@H](CC(C)C)C(=O)O; ξNMeF = CNC(Cc1ccccc1)C(=O)O; NMeV = CN[C@H](C(=O)O)C(C)C; NMeA = CN[C@@H](C)C(=O)O; Piperidide = C1CCN(*)CC1; dNMeA = CN[C@H](C)C(=O)O; Sar = CNCC(=O)O; tBu = CC(C)(C)*
quantity.name: microsomal CLint at 1 uM (µL/min/mg)
Entry rule: numbers only, all in µL/min/mg.

I am curious: what microsomal CLint at 1 uM value has been reported for CC[C@H](C)[C@H]1C(=O)N[C@@H](C)C(=O)N[C@H](C(=O)N2CCCCC2)CC(=O)N[C@H](C(C)C)C(=O)N[C@@H](Cc2ccccc2)C(=O)N(C)CC(=O)N[C@@H](CC(C)C)C(=O)N[C@@H](Cc2ccccc2)C(=O)N2CCC[C@H]2C(=O)N[C@@H]([C@@H](C)O)C(=O)N[C@@H](COC(C)(C)C)C(=O)N(C)[C@@H](CC(C)C)C(=O)N1C [DP-55] ([dV]F[Sar]LFPTS(tBu)[NMeL][NMeI]AD-Piperidide; lactam N-12) ?
79

Field entry: CC(C)C[C@H]1C(=O)N[C@@H](C(C)C)C(=O)N[C@H](C(=O)N(C)C(Cc2ccccc2)C(=O)N(C)[C@@H](Cc2ccccc2)C(=O)N[C@@H](C)C(=O)N2CCCCC2)CC(=O)N[C@H](C(C)C)C(=O)N(C)[C@@H](C)C(=O)N(C)[C@@H](Cc2ccccc2)C(=O)N(C)[C@@H](CC(C)C)C(=O)N[C@@H]([C@@H](C)O)C(=O)N(C)CC(=O)N1C (some centres unmarked) [DP-306] ([dV][NMeA][NMeF][NMeL]T[Sar][NMeL]VD[ξNMeF][NMeF]A-Piperidide; lactam N-9)
63

Moving on to CC[C@H](C)[C@@H]1NC(=O)[C@H](Cc2ccccc2)N(C)C(=O)[C@H](Cc2ccccc2)NC(=O)[C@H]([C@@H](C)O)NC(=O)[C@H](C(C)C)N(C)C(=O)[C@H](CC(C)C)NC(=O)[C@H](CC(C)C)N(C)C(=O)CCCN(C)C(=O)C[C@@H](C(=O)N2CCCCC2)NC(=O)[C@H](C)NC(=O)[C@H](C)N(C)C1=O [DP-274] ([NMeGABA][NMeL]L[NMeV]TF[NMeF]I[NMeA]AD-Piperidide; lactam N-11)
183

Next compound: CC(C)C[C@H]1C(=O)NCC(=O)N(C)[C@@H](Cc2ccccc2)C(=O)N(C)[C@@H](Cc2ccccc2)C(=O)N[C@@H]([C@@H](C)O)C(=O)N(C)[C@@H](C)C(=O)N[C@H](C(=O)N(C)[C@@H](Cc2ccccc2)C(=O)N(C)[C@@H](Cc2ccccc2)C(=O)N[C@@H](C)C(=O)N2CCCCC2)CC(=O)N(C)CCCC(=O)N[C@@H](C(C)C)C(=O)N1C [DP-402] ([NMeGABA]V[NMeL]G[NMeF][NMeF]T[NMeA]D[NMeF][NMeF]A-Piperidide; lactam N-9)
185

Again, but for CC[C@H](C)[C@@H]1NC(=O)[C@H](Cc2ccccc2)N(C)C(=O)[C@H](C)N(C)C(=O)[C@H]([C@@H](C)O)NC(=O)[C@@H](C)N(C)C(=O)C[C@@H](C(=O)N2CCCCC2)NC(=O)[C@H](CC(C)C)N(C)C(=O)[C@H](C)N(C)C(=O)[C@H](Cc2ccccc2)NC(=O)[C@H](C(C)C)N(C)C(=O)[C@@H]2CCCN2C1=O [DP-164] ([dNMeA]T[NMeA][NMeF]IP[NMeV]F[NMeA][NMeL]D-Piperidide; lactam N-11)
253

###

Recorded Papp at 18 hours, 50 µM, one value per entry.
- method: PAMPA (parallel artificial membrane permeability assay)
- Format: in vitro ADME
- test.context: PAMPA; membrane permeation rate (Pe); 50 mM MOPSO buffer pH 6.5 with 5.0% glycocholic acid, 37° C., 18 hours; read-out: iPAMPA Pe
Positions of bridges follow the written chain, without caps; N, C: chain ends. Non-standard residues stand in square brackets, D forms with d. Residues, ends and D or L forms follow the SMILES beside them. *: point of attachment. NMeF = CN[C@@H](Cc1ccccc1)C(=O)O; NMeI = CC[C@H](C)[C@H](NC)C(=O)O; NMeL = CN[C@@H](CC(C)C)C(=O)O; NMeV = CN[C@H](C(=O)O)C(C)C; NMeA = CN[C@@H](C)C(=O)O; Piperidide = C1CCN(*)CC1; dNMeA = CN[C@H](C)C(=O)O; Sar = CNCC(=O)O
Report the figure in ×10⁻⁶ cm/s without appending any unit label.

Worked set:
compound	units.text	Papp at 18 hours, 50 µM
CC[C@H](C)[C@H]1C(=O)N[C@@H](C)C(=O)N[C@H](C(=O)N2CCCCC2)CC(=O)N(C)[C@@H](C)C(=O)N[C@@H]([C@@H](C)O)C(=O)N(C)[C@@H](Cc2ccccc2)C(=O)N[C@@H](CC(C)C)C(=O)N2CCC[C@H]2C(=O)N(C)[C@@H](C(C)C)C(=O)N[C@@H](Cc2ccccc2)C(=O)N(C)CC(=O)N(C)[C@@H](CC(C)C)C(=O)N1C [DP-58] ([NMeA]T[NMeF]LP[NMeV]F[Sar][NMeL][NMeI]AD-Piperidide; lactam N-12)	×10⁻⁶ cm/s	20
CC[C@H](C)[C@@H]1NC(=O)[C@H](C)N(C)C(=O)[C@H]([C@@H](C)O)NC(=O)[C@H](C(C)C)N(C)C(=O)[C@H](CC(C)C)NC(=O)[C@H](CC(C)C)N(C)C(=O)[C@@H](C)N(C)C(=O)C[C@@H](C(=O)N2CCCCC2)NC(=O)[C@H](Cc2ccccc2)NC(=O)[C@H](C)NC(=O)[C@H](Cc2ccccc2)N(C)C1=O [DP-242] ([dNMeA][NMeL]L[NMeV]T[NMeA]I[NMeF]AFD-Piperidide; lactam N-11)	×10⁻⁶ cm/s	29

Now for a further compound.
Requested read-out: Papp at 18 hours, 50 µM. Entry: CC(C)C[C@H]1C(=O)N[C@@H](C(C)C)C(=O)N[C@H](C(=O)N(C)[C@@H](Cc2ccccc2)C(=O)N[C@@H](C)C(=O)N2CCCCC2)CC(=O)N[C@@H](C)C(=O)N(C)[C@@H](Cc2ccccc2)C(=O)N(C)[C@@H](C)C(=O)N(C)[C@@H](CC(C)C)C(=O)N[C@@H]([C@@H](C)O)C(=O)N(C)CC(=O)N1C [DP-196] (A[NMeF][NMeA][NMeL]T[Sar][NMeL]VD[NMeF]A-Piperidide; lactam N-9)
29

###

Below, each entry is listed with its recorded Papp at 18 hours, 50 µM.
- method: PAMPA (parallel artificial membrane permeability assay)
- Format: in vitro ADME
- test.context: PAMPA; membrane permeation rate (Pe); 50 mM MOPSO buffer pH 6.5 with 5.0% glycocholic acid, 37° C., 18 hours; read-out: iPAMPA Pe
Starred links: 1 amine or outer side, 2 acyl side, 3 side chain; linkers in the order of their positions; H or OH if unused. Positions of bridges follow the written chain, without caps; N, C: chain ends. Non-standard residues stand in square brackets, D forms with d. Residues, ends and D or L forms follow the SMILES beside them. *: point of attachment. NMeF = CN[C@@H](Cc1ccccc1)C(=O)O; NMeβAla = CN(CCC(=O)[*:2])[*:1]; Aoc(2) = CCCCCC[C@H](N)C(=O)O; NMeL = CN[C@@H](CC(C)C)C(=O)O; NMeV = CN[C@H](C(=O)O)C(C)C; NMeS = CN[C@@H](CO)C(=O)O; NMeA = CN[C@@H](C)C(=O)O; Piperidide = C1CCN(*)CC1; dNMeA = CN[C@H](C)C(=O)O; β3hA = C[C@H](N)CC(=O)O; Abu = CC[C@H](N)C(=O)O; Sar = CNCC(=O)O; tBu = CC(C)(C)*

molecule	Papp at 18 hours, 50 µM
CC[C@H](C)[C@@H]1NC(=O)[C@@H](C(C)C)NC(=O)C[C@@H](C(=O)N2CCCCC2)NC(=O)[C@H](C)N(C)C(=O)[C@H](CC(C)C)N(C)C(=O)CN(C)C(=O)[C@H]([C@@H](C)O)NC(=O)[C@H](Cc2ccccc2)N(C)C(=O)[C@H](CC(C)C)N(C)C(=O)[C@H](C)NC(=O)[C@H](C(C)C)N(C)C(=O)[C@H](Cc2ccccc2)N(C)C1=O [DP-132] ([dV]I[NMeF][NMeV]A[NMeL][NMeF]T[Sar][NMeL][NMeA]D-Piperidide; lactam N-12)	390 nm/s

Reported Papp at 18 hours, 50 µM, molecule CC(C)C[C@H]1C(=O)N(C)[C@@H](C)C(=O)N[C@@H]([C@@H](C)O)C(=O)N(C)[C@@H](C)C(=O)N[C@H](C(=O)N(C)[C@@H](Cc2ccccc2)C(=O)N(C)[C@@H](Cc2ccccc2)C(=O)N[C@@H](C)C(=O)N2CCCCC2)CC(=O)N(C)CCC(=O)N(C)[C@@H](Cc2ccccc2)C(=O)N(C)[C@@H](CC(C)C)C(=O)N(C)[C@@H](C)C(=O)N[C@@H](C(C)C)C(=O)N1C [DP-500] ([NMeβAla][NMeF][NMeL][NMeA]V[NMeL][NMeA]T[NMeA]D[NMeF][NMeF]A-Piperidide; lactam N-10) : ____
270 nm/s

Then this molecule: CC(C)C[C@H]1C(=O)N[C@@H](COC(C)(C)C)C(=O)N[C@H](C(=O)N2CCCCC2)CC(=O)N[C@H](C)C(=O)N(C)[C@@H](Cc2ccccc2)C(=O)N(C)[C@@H](CC(C)C)C(=O)N[C@@H]([C@@H](C)O)C(=O)N(C)CC(=O)N1C [DP-528] ([dA][NMeF][NMeL]T[Sar][NMeL]S(tBu)D-Piperidide; lactam N-8)
130 nm/s

How about CCCCCC[C@@H]1NC(=O)[C@H](CO)N(C)C(=O)C[C@H](C)NC(=O)[C@H](CC(C)C)N(C)C(=O)[C@H](CC(C)C)N(C)C(=O)[C@@H](CC(C)C)NC(=O)[C@H](CC)NC(=O)[C@H](CC(C)C)N(C)C(=O)[C@H](C(C)C)NC(=O)[C@H](CC(C)C)N(C)C(=O)CN(C)C1=O [DP-648] (cyclo([Abu][dL][NMeL][NMeL][β3hA][NMeS][Aoc(2)][Sar][NMeL]V[NMeL])) ?
530 nm/s

Same lookup for CC[C@H](C)[C@@H]1NC(=O)[C@H](CC(C)C)N(C)C(=O)[C@H](Cc2ccccc2)NC(=O)[C@H]([C@@H](C)O)NC(=O)[C@H](CC(C)C)N(C)C(=O)[C@H](C(C)C)N(C)C(=O)[C@@H](C)N(C)C(=O)C[C@@H](C(=O)N2CCCCC2)NC(=O)[C@H](CC(C)C)NC(=O)[C@H](Cc2ccccc2)N(C)C1=O [DP-432] ([dNMeA][NMeV][NMeL]TF[NMeL]I[NMeF]LD-Piperidide; lactam N-10) , please.
260 nm/s

# credit: patent US9409952B2
